- assay system: human KV 1.5 (IKur) (Homo sapiens)
- Construct: expressed in transfected cells
- Sequence (P22460 whole entry): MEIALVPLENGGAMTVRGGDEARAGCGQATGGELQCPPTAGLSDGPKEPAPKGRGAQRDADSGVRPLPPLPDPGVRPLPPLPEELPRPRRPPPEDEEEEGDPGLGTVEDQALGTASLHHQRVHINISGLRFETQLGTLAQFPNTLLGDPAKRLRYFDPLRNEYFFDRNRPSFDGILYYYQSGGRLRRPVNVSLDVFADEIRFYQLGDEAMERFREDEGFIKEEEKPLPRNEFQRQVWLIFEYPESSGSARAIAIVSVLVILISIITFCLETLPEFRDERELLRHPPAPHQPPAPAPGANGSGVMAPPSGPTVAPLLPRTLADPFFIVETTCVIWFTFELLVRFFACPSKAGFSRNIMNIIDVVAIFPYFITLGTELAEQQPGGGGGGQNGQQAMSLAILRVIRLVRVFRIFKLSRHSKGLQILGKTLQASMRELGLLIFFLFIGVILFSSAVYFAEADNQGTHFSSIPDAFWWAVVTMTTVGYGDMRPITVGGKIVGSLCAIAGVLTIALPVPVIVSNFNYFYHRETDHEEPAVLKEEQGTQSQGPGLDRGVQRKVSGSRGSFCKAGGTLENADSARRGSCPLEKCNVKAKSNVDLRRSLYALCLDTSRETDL
- experiment description: Block of IKur current in patch clamped L-929 cells expressing human Kv1.5
- Assay type: cell-based
- test conditions: L929, patch clamped mammalian L-929 cells stably expressing human Kv1.5, read-out: Percentage inhibition of Kv1.5 in L-929 cells at 0.3 μM
Form field: inhibition at 0.3 µM (one value per entry).
Reply numerically in %, unit not repeated.

Below, each entry is followed by its recorded inhibition at 0.3 µM result.
entry smiles | assay system | inhibition at 0.3 µM [%]
NS(=O)(=O)c1cncc(-c2cc(NCc3ccccc3)c3c(-c4ccccc4)ccn3n2)c1 | human KV 1.5 (IKur) (Homo sapiens) | 99
CCOC(=O)c1cncc(-c2cc(NCc3ccccc3)c3c(-c4cncc(C(=O)OCC)c4)ccn3n2)c1 | human KV 1.5 (IKur) (Homo sapiens) | 34
CS(=O)(=O)Nc1cncc(-c2cc(NCc3ccccc3)c3c(-c4ccccc4)ccn3n2)c1 | human KV 1.5 (IKur) (Homo sapiens) | 98
NS(=O)(=O)c1cncc(-c2cc(NCc3ccccc3)c3c(-c4cccc(F)c4)ccn3n2)c1 | human KV 1.5 (IKur) (Homo sapiens) | 95
CC(=O)NS(=O)(=O)c1cncc(-c2cc(NCc3ccccc3)c3c(-c4ccccc4)ccn3n2)c1 | human KV 1.5 (IKur) (Homo sapiens) | 37

CC(=O)Nc1cncc(-c2cc(NCc3ccccc3)c3c(-c4ccccc4)ccn3n2)c1 has a reported inhibition at 0.3 µM of 98
